Test system: MET
experimentalContext: concentration: 1 μM, replicates: in singlicate; n = 1;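 also: KINOMEscan kinase panel screen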
parameter: %Inh (%)

* CC(=O)Nc1cn2nc(Oc3cccc(NC(=O)c4cccc(C(F)(F)F)c4)c3)ccc2n1 | 16
* Cc1cc(-c2c(-c3ccc(F)cc3)ncn2CCCN2CCOCC2)nc(N)n1 | 0
* CCNc1nccc(-c2c(-c3ccc(F)cc3)ncn2C2CCN(C)CC2)n1 | 0
* Cl.N#CCc1ccc(Nc2nccc(Nc3ccc(Oc4ccccc4)cc3)n2)cc1 | 0

----------
Test system: BRSK1
experimentalContext: concentration: 1 μM, replicates: in singlicate; n = 1
Think of 6% as a floor: if %Inh stands on it or above, it is Yes; beneath it, No.

- COc1ccc(C)c(Nc2ccnc(Nc3ccc(-c4cnc[nH]4)cc3)n2)c1.Cl [GW784041]: Yes
- Fc1cc(Cl)ccc1Nc1ccnc2cc(-c3ccc(CN4CCOCC4)o3)ccc12 [GW560109]: Yes
- COc1cccc(-c2nc(-c3ccccc3)[nH]c2-c2ccncc2)c1 [SB-610250]: No
- Nc1ncnc2scc(-c3ccc(NC(=O)Cc4cc(F)ccc4F)cc3)c12.O=C(O)C(F)(F)F [SB-731254-M]: No
- CN(c1ccc(F)c(NC(=O)c2cccc(OC(C)(C)C#N)c2Cl)c1)c1ccc2nc(NC(=O)C3CC3)sc2n1: No

----------
The following compounds are shown together with reported %Inh values.
Test system: AURKA
experimentalContext: concentration: 1 μM, replicates: in singlicate; n = 1
parameter: %Inh (%)

* Cl.N#CCc1ccc(Nc2nccc(Nc3ccc(Oc4ccccc4)cc3)n2)cc1 | 6
* Cl.Cl.NCC(NC(=O)c1cc(-c2cccnc2)c(-c2ccnc3[nH]ccc23)s1)c1ccccc1 (stereo not drawn) | 15
* COc1cccc(CC(=O)N2CCc3cc(-c4cn(C)c5ncnc(N)c45)ccc32)c1 | 52
* COc1ccc(NC(=O)c2ccoc2)cc1-c1ccc(C(=O)NCC2CC2)cc1 | 1
* CN(c1ccc(F)c(NC(=O)c2cccc(OC(C)(C)C#N)c2Cl)c1)c1ccc2nc(NC(=O)C3CC3)sc2n1 | 22
* Cc1ccc(Nc2ccnc(Nc3ccc(C)c(F)c3)n2)cc1O.Cl | 0
* COc1ccc(C2=C(Nc3cccc(O)c3)C(=O)NC2=O)cc1 | 13
* Nc1ncnc2scc(-c3ccc(NC(=O)Cc4cc(F)ccc4F)cc3)c12.O=C(O)C(F)(F)F | 53
* COc1cccc(NC(=O)NCCNc2ccnc(Nc3ccc(F)cc3)n2)c1 | 19
* N#CC1(c2cccc(C(=O)Nc3cccc(Oc4ccc5nc(NC(=O)C6CC6)sc5n4)c3)c2)CC1 | 0
* COc1cc(Nc2ccnc3cc(-c4ccncc4)ccc23)cc(OC)c1OC.Cl | 0
* COC(=O)Nc1nc2ccc(Oc3ccc(NC(=O)Nc4cc(C(F)(F)F)ccc4F)cc3)cc2[nH]1.Cl | 0

----------
Listed here are molecules together with their documented %Inh.
System: PRKX
experimentalContext: concentration: 1 μM, replicates: in singlicate; n = 1
parameter: %Inh (%)

- CCOc1nccc(-c2c(-c3ccc(F)cc3)ncn2C2CCNCC2)n1: 0
- COc1cccc(-c2nc(-c3ccccc3)[nH]c2-c2ccncc2)c1: 0
- CCn1cnc2c(NCc3ccccc3)ncnc21: 0
- COC(=O)Nc1nc2cc(Oc3ccc(NC(=O)Nc4cccc(SC)c4)cc3)ccc2[nH]1.Cl: 24
- Cc1cccc(Nc2nc(N[C@H]3CCCC[C@H]3N)ncc2C(N)=O)c1.Cl: 25
- Cn1cc(-c2ccc3c(c2)CCN3C(=O)Cc2cc(F)cc(C(F)(F)F)c2)c2c(N)ncnc21: 6
- CN(c1ccc(NC(=O)N2CCN(CCCN3CCOCC3)CC2)cc1)c1ccnc(Nc2ccc(CS(C)(=O)=O)cc2)n1.Cl: 63
- O=C(Nc1n[nH]c2nc(-c3cccc(O)c3)ccc12)C1CC1: 0

----------
System: TXK
experimentalContext: concentration: 1 μM, replicates: in singlicate; n = 1
parameter: %Inh (%)

• Cc1nn2c(=O)cc(N3CCO[C@H](C)C3)nc2n1Cc1cccc(Cl)c1Cl = 0
• COc1cc(Nc2ccnc3cc(-c4ccncc4)ccc23)cc(OC)c1OC.Cl = 92.8
• Cc1ccc(-c2ccc3occ(-c4ccc(S(C)=O)cc4)c3c2)nn1 (stereo not shown) = 2
• CC(C)c1nc(-c2cccc(NS(=O)(=O)c3c(F)cccc3F)c2)c(-c2ccnc(Nc3ccc(N4CCOCC4)nc3)n2)s1.Cl = 92.7
• CN(C)CCNS(=O)(=O)c1ccc(-c2ccnc3[nH]ccc23)cc1 = 91
• COc1cccc(C2=C(Nc3cccc(O)c3)C(=O)NC2=O)c1 = 11
• CN(c1ccc2c(c1)nc(NCc1ccccc1)n2C)c1ccnc(Nc2ccc(CS(C)(=O)=O)cc2)n1.Cl = 78

----------
In this section we review reported %Inh values for a set of compounds.
Test system: MEK1
Construct: gene MAP2K1
experimentalContext: concentration: 1 μM, replicates: in singlicate; n = 1
parameter: %Inh (%)

• COc1cc(Nc2nccc(N3CCC(NS(=O)(=O)c4ccc(NC(C)=O)cc4)CC3)n2)cc(OC)c1OC = 0
• O=C(Nc1n[nH]c2cc(-c3cccs3)ccc12)C1CC1 = 47
• Cc1cccc(Nc2nc(NCCN)ncc2C(N)=O)c1 = 0
• Cc1ccc(-c2ccc3occ(-c4ccc(S(C)=O)cc4)c3c2)nn1 (centres unmarked) = 0
• COc1ccc(C)c(Nc2ccnc(Nc3ccc(-c4cnc[nH]4)cc3)n2)c1.Cl = 31
• CCn1c(-c2nonc2N)nc2c(-c3ccccc3)ncc(OCCCN)c21.O=C(O)C(F)(F)F.O=C(O)C(F)(F)F = 0
• COc1cccc2c(-c3ccncc3)c(-c3ccc(F)cc3)nn12 = 0
• Fc1cc(Cl)ccc1Nc1ccnc2cc(-c3ccc(CN4CCSCC4)o3)ccc12 = 53
• Cc1nn2c(=O)cc(N3CCO[C@H](C)C3)nc2n1Cc1cccc(Cl)c1Cl = 0
• CC(=O)Nc1cn2nc(Oc3cccc(NC(=O)c4cccc(C(F)(F)F)c4)c3)ccc2n1 = 0
• COC(=O)Nc1nc2cc(Oc3ccc(NC(=O)Nc4cccc(SC)c4)cc3)ccc2[nH]1.Cl = 0

----------
System: ULK3
experimentalContext: concentration: 1 μM, replicates: in singlicate; n = 1
parameter: %Inh (%)

* Cc1cccc(Nc2nc(N[C@H]3CCCC[C@H]3N)ncc2C(N)=O)c1.Cl [GSK986310] | 43
* CN(C)CCOc1ccc(-c2cc(-c3ccc(Cl)c(O)c3)c(-c3ccncc3)[nH]2)cc1.Cl.Cl [SB-684387] | 14
* N#Cc1cnc2cc(-c3cnc(CNCCN4CCOCC4)s3)ccc2c1Nc1ccc(Oc2ccccc2)cc1 [GW664114] | 48
* CNc1nccc(-c2ccc3c(N)n[nH]c3c2)n1 [GSK2206003] | 9
* COc1cc(Nc2nccc(N3CCC(NS(=O)(=O)c4ccc(NC(C)=O)cc4)CC3)n2)cc(OC)c1OC [GSK1379825] | 97.4
* COC(=O)Nc1nc2cc(Oc3ccc(NC(=O)Nc4cccc(SC)c4)cc3)ccc2[nH]1.Cl [GW697999] | 21

----------
Collected %Inh values appear next to each entry.
Test system: PIK3CD
experimentalContext: concentration: 1 μM, replicates: in singlicate; n = 1
parameter: %Inh (%)

• c1ccc(Oc2ccc(Nc3ccnc4cc(-c5ccc(CN6CCCCC6)o5)ccc34)cc2)nc1 = 0
• COc1cc(Nc2nccc(N3CCC(NS(=O)(=O)c4ccc(NC(C)=O)cc4)CC3)n2)cc(OC)c1OC = 91.6
• CN1CCN(Cc2ccc(NC(=O)Nc3ccc(N(C)c4ccnc(Nc5ccc(CS(C)(=O)=O)cc5)n4)cc3)cc2)CC1.Cl = 0
• Cc1ccc(O)cc1Nc1ccnc2ccc(C(C)(C)C)cc12 = 56
• COc1cccc(C2=C(Nc3cccc(O)c3)C(=O)NC2=O)c1 = 0
• Cc1nn2c(=O)cc(N3CCO[C@H](C)C3)nc2n1Cc1cccc(Cl)c1Cl = 100
• CCn1c(-c2nonc2N)nc2c(-c3ccccc3)ncc(OCCCN)c21.O=C(O)C(F)(F)F.O=C(O)C(F)(F)F = 1
• CN(c1ccc(NC(=O)Nc2cccc(Cl)c2)cc1)c1ccnc(N)n1.Cl = 48
• COC(=O)Nc1nc2cc(Oc3ccc(NC(=O)Nc4cccc(SC)c4)cc3)ccc2[nH]1.Cl = 0
• NCCC(NC(=O)c1cc(Br)c(-c2ccnc3[nH]ccc23)s1)c1ccccc1.O=C(O)C(F)(F)F.O=C(O)C(F)(F)F (centres unmarked) = 7
• Cn1cc(-c2ccc3c(c2)CCN3C(=O)Cc2cc(F)cc(C(F)(F)F)c2)c2c(N)ncnc21 = 0
• CCn1cnc2c(NCc3ccccc3)ncnc21 = 0
• CSc1ccc(NC2=C(c3ccc(Cl)cc3)C(=O)NC2=O)cc1 = 54
• CNc1nccc(-c2ccc3c(N)n[nH]c3c2)n1 = 0
